assay: protein stability index of a GFP-peptide fusion (yeast GPS) (PSI 1-4); higher = more stable; sorted into four equal gates, so the index is relative within each strain; conditions: san1∆
assay readout: protein stability index

> print(dat)
                     residue.sequence  reported.value
 1           SLLLTNVIITGSTSLIE [ARP7]            1.66
 2         MDNKTPVTLAKVIKVLG [RPS28A]            1.16
 3           FEHGRTPAEMSRPATTT [FAS2]            2.41
 4  MTIDDSNRLLMDVDQFD [YJR042W/NUP85]            3.25
 5           SNQAVGQTWNFPEVFQV [SRB8]            3.11
 6         MARYGATSTNPAKSASA [RPL17A]            2.31
 7           NFNPDNGFAPISEVMED [FAS1]             3.2
 8           ELAQYMKTNVHTQANEP [RGR1]            2.75
 9           KELTRIPGEEVEETEVP [MED4]            3.02
10           SDIKQGYTQHGGLRPFG [PRE9]            3.58
11           DVYNRELDEHTTQIDLF [BRR2]             2.9
12  LKERAKNISSQLDSKLM [YGR119C/NUP57]            1.56
13           MTAVRRSTRIRTKSQVI [IRR1]            3.42
14         LKIFEGIPPPYDKKKRV [RPL16B]            1.33
15          GTGRSGQGAFGNMCRGG [RPL4A]            3.33
16          TVIKFRAGVCEYNEDSR [RPN13]             1.8
17           NWRRLSGRNIHLAVVCV [SSN2]            1.55
18  TIGGGLFGNKPTTTTGG [YGR119C/NUP57]            3.56
19           SPDKIGTFTADYSKPNL [SSN2]            2.65
20           DNIGEIDESLFNLLILS [YCG1]            2.31
21           LYLKVIPMDFIRNVLVT [SSN2]             1.4
22   QNNKPSFVFGQAAAKPS [YLR335W/NUP2]             2.2
23           NQNQRNVNETMSRSLAN [SMC3]            3.15
24           APHDSEATLLTNSNNGS [SNF5]            2.91
25           TKYSAKYAQDGAGIERE [RPL3]            3.24
26           KALPMLEQVEFEKNTIL [MED4]            2.65
27           TTKLAFLVEYEGQENNY [SIR4]             2.4
28           ASEREELALIEEAYDNP [PRP8]            3.35
29   FNRLKKQAHEKLDASKK [YIL149C/MLP2]            3.41
30           LGVKNLGLCCLLDVKLA [YCG1]            1.82
